Just for reference, the supplement of paper PMC10627819 is where these values come from.

# System: B. subtilis 168
# assay-text: Bliss interaction score (quartile over a dose matrix) (fitness difference); higher = more antagonism (negative = synergy)
Entries and their Bliss interaction score
readout-kind: Bliss interaction score

| molecule | numeric-readout |
| --- | --- |
| C[C@@H](O)[C@H]1C(=O)N2C(C(=O)O)=C(SCCNC=N)C[C@H]12 [Imipenem] + CN1C2=CC=CC=C2N=C3C1=CC=CC3=O [Pyocyanin] | 0.0885 |
| C/C(=C\C(=O)OCCCCCCCCC(=O)O)C[C@@H]1OC[C@H](C[C@@H]2O[C@H]2[C@@H](C)[C@H](C)O)[C@@H](O)[C@H]1O [Pseudomonic acid] + CC[C@H]1OC(=O)[C@H](C)C(=O)[C@H](C)[C@@H](O[C@@H]2O[C@H](C)C[C@H](N(C)C)[C@H]2O)[C@](C)(OC)C[C@@H](C)C(=O)[C@H](C)[C@H]2N(CCCCn3cnc(-c4cccnc4)c3)C(=O)O[C@]12C [Telithromycin] | 0.0359 |
| O=C(O[C@@H]1Cc2c(O)cc(O)cc2O[C@@H]1c1cc(O)c(O)c(O)c1)c1cc(O)c(O)c(O)c1 [EGCG] + CN1C2=CC=CC=C2N=C3C1=CC=CC3=O [Pyocyanin] | 0.187 |
| C/C(=C\C(=O)OCCCCCCCCC(=O)O)C[C@@H]1OC[C@H](C[C@@H]2O[C@H]2[C@@H](C)[C@H](C)O)[C@@H](O)[C@H]1O [Pseudomonic acid] + CN[C@@H]1[C@H](O)[C@H](NC)[C@H]2O[C@@]3(O)C(=O)C[C@@H](C)O[C@H]3O[C@@H]2[C@H]1O [Spectinomycin] | 0.0538 |

---

Measured fitness values are reported for all entries that follow.
# System: S. aureus Newman
# assay-text: fitness (endpoint OD595 vs no drug) (fraction); higher = more growth
# setup-conditions: first compound 0.75 µg/mL; partner 1.562 µg/mL
readout-kind: fitness

| compound | numeric-readout |
| --- | --- |
| N[C@@H]1CONC1=O [Cycloserine D] + C[C@@H]1O[C@@H]1P(=O)(O)O [Fosfomycin] | 0.518 |
| O=C(N[C@H](CO)[C@H](O)c1ccc([N+](=O)[O-])cc1)C(Cl)Cl [Chloramphenicol] + C[C@@H]1O[C@@H]1P(=O)(O)O [Fosfomycin] | 0.452 |
| O=C(N[C@H](CO)[C@H](O)c1ccc([N+](=O)[O-])cc1)C(Cl)Cl [Chloramphenicol] + Cc1ncc([N+](=O)[O-])n1CCO [Metronidazole] | 0.768 |
| N[C@@H]1CONC1=O [Cycloserine D] + Cc1ncc([N+](=O)[O-])n1CCO [Metronidazole] | 0.972 |

---

Some molecules, each annotated with its measured Bliss interaction score.
# System: S. aureus Newman
# assay-text: Bliss interaction score (quartile over a dose matrix) (fitness difference); higher = more antagonism (negative = synergy)

| molecule | Bliss interaction score |
| --- | --- |
| CC[C@H]1OC(=O)[C@H](C)[C@@H](O[C@H]2C[C@@](C)(OC)[C@@H](O)[C@H](C)O2)[C@H](C)[C@@H](O[C@@H]2O[C@H](C)C[C@H](N(C)C)[C@H]2O)[C@](C)(OC)C[C@@H](C)C(=O)[C@H](C)[C@@H](O)[C@]1(C)O [Clarithromycin] + CN[C@@H]1[C@H](O)[C@H](NC)[C@H]2O[C@@]3(O)C(=O)C[C@@H](C)O[C@H]3O[C@@H]2[C@H]1O [Spectinomycin] | -0.181 |
| CC(=O)OC[C@H]1O[C@@H]([S-])[C@H](OC(C)=O)[C@@H](OC(C)=O)[C@@H]1OC(C)=O.CCP(CC)CC.[Au+] [Auranofin] + CC1=C\[C@@H](O)CC(=O)Cc2nc(co2)C(=O)N2CCC=C2C(=O)O[C@H](C(C)C)[C@H](C)/C=C/C(=O)NC\C=C\1 [Virginiamycin M1] | -0.0212 |
| CCC[C@@H]1C[C@@H](C(=O)N[C@@H]([C@H]2O[C@H](SC)[C@H](O)[C@@H](O)[C@H]2O)[C@H](C)Cl)N(C)C1 [Clindamycin] + CN(C)C(=O)C(CCN1CCC(O)(c2ccc(Cl)cc2)CC1)(c1ccccc1)c1ccccc1 [Loperamide] | -0.0895 |
| O=C1CN(/N=C/c2ccc([N+](=O)[O-])o2)C(=O)N1 [Nitrofurantoin] + C/C(=C\C(=O)OCCCCCCCCC(=O)O)C[C@@H]1OC[C@H](C[C@@H]2O[C@H]2[C@@H](C)[C@H](C)O)[C@@H](O)[C@H]1O [Pseudomonic acid] | -0.0266 |

---

Bliss interaction score listing for selected compounds.
# Test system: B. subtilis 168
# assay-text: Bliss interaction score (quartile over a dose matrix) (fitness difference); higher = more antagonism (negative = synergy)
readout-kind: Bliss interaction score

| compound | target | numeric-readout |
| --- | --- | --- |
| N[C@@H]1CONC1=O [CycloserineD] + CO[C@H]1/C=C/O[C@@]2(C)Oc3c(C)c(O)c4c(O)c(c(/C=N/N5CCN(C)CC5)c(O)c4c3C2=O)NC(=O)/C(C)=C\C=C\[C@H](C)[C@H](O)[C@@H](C)[C@@H](O)[C@@H](C)[C@H](OC(C)=O)[C@@H]1C [Rifampicin] | B. subtilis 168 | 0.0563 |
| CCC[C@@H]1C[C@@H](C(=O)N[C@@H]([C@H]2O[C@H](SC)[C@H](O)[C@@H](O)[C@H]2O)[C@@H](C)O)N(C)C1 [Lincomycin] + C/C(=C\C(=O)OCCCCCCCCC(=O)O)C[C@@H]1OC[C@H](C[C@@H]2O[C@H]2[C@@H](C)[C@H](C)O)[C@@H](O)[C@H]1O [Pseudomonic acid] | B. subtilis 168 | -0.0308 |
| CCC[C@@H]1C[C@@H](C(=O)N[C@@H]([C@H]2O[C@H](SC)[C@H](O)[C@@H](O)[C@H]2O)[C@@H](C)O)N(C)C1 [Lincomycin] + CN[C@@H]1[C@H](O[C@H]2[C@H](O[C@H]3[C@H](O)[C@@H](O)[C@H](N=C(N)N)[C@@H](O)[C@@H]3N=C(N)N)O[C@@H](C)[C@]2(O)C=O)O[C@@H](CO)[C@H](O)[C@H]1O [Streptomycin] | B. subtilis 168 | 0.105 |
| CCC[C@@H]1C[C@@H](C(=O)N[C@@H]([C@H]2O[C@H](SC)[C@H](O)[C@@H](O)[C@H]2O)[C@@H](C)O)N(C)C1 [Lincomycin] + O=C1CN(/N=C/c2ccc([N+](=O)[O-])o2)C(=O)N1 [Nitrofurantoin] | B. subtilis 168 | 0.163 |

---

# Tested on: S. aureus Newman
# assay-text: fitness (endpoint OD595 vs no drug) (fraction); higher = more growth
# setup-conditions: first compound 1.5 µg/mL; partner 0.125 µg/mL
readout-kind: fitness

| compound | target | numeric-readout |
| --- | --- | --- |
| O=C(N[C@H](CO)[C@H](O)c1ccc([N+](=O)[O-])cc1)C(Cl)Cl [Chloramphenicol] + CC1=C\[C@@H](O)CC(=O)Cc2nc(co2)C(=O)N2CCC=C2C(=O)O[C@H](C(C)C)[C@H](C)/C=C/C(=O)NC\C=C\1 [Virginiamycin M1] | S. aureus Newman | 0.474 |
| N[C@@H]1CONC1=O [Cycloserine D] + Cn1nnc(-c2ccc(-c3ccc(N4C[C@H](CO)OC4=O)cc3F)cn2)n1 [Tedizolid] | S. aureus Newman | 0.855 |
| N[C@@H]1CONC1=O [Cycloserine D] + CC1=C\[C@@H](O)CC(=O)Cc2nc(co2)C(=O)N2CCC=C2C(=O)O[C@H](C(C)C)[C@H](C)/C=C/C(=O)NC\C=C\1 [Virginiamycin M1] | S. aureus Newman | 0.991 |
| O=C(N[C@H](CO)[C@H](O)c1ccc([N+](=O)[O-])cc1)C(Cl)Cl [Chloramphenicol] + CCC[C@@H]1C[C@@H](C(=O)N[C@@H]([C@H]2O[C@H](SC)[C@H](O)[C@@H](O)[C@H]2O)[C@H](C)Cl)N(C)C1 [Clindamycin] | S. aureus Newman | 0.0591 |

---

# Test system: S. aureus DSM 20231
# assay-text: Bliss interaction score (quartile over a dose matrix) (fitness difference); higher = more antagonism (negative = synergy)

| compound | target | Bliss interaction score |
| --- | --- | --- |
| O=C(N[C@H](CO)[C@H](O)c1ccc([N+](=O)[O-])cc1)C(Cl)Cl [Chloramphenicol] + CO[C@@H]1[C@@H](OC(N)=O)[C@@H](O)[C@H](Oc2ccc3c(O)c(NC(=O)c4ccc(O)c(CC=C(C)C)c4)c(=O)oc3c2C)OC1(C)C [Novobiocin] | S. aureus DSM 20231 | 0.0712 |
| O=C(N[C@H](CO)[C@H](O)c1ccc([N+](=O)[O-])cc1)C(Cl)Cl [Chloramphenicol] + Cn1nnc(-c2ccc(-c3ccc(N4C[C@H](CO)OC4=O)cc3F)cn2)n1 [Tedizolid] | S. aureus DSM 20231 | -0.157 |
| CC(=O)OC[C@H]1O[C@@H]([S-])[C@H](OC(C)=O)[C@@H](OC(C)=O)[C@@H]1OC(C)=O.CCP(CC)CC.[Au+] [Auranofin] + Clc1ccc(COC(Cn2ccnc2)c2ccc(Cl)cc2Cl)c(Cl)c1 [Miconazole] | S. aureus DSM 20231 | -0.0279 |
| CC(=O)O[C@H]1C[C@@]2(C)[C@@H](C[C@@H](O)[C@H]3[C@@]4(C)CC[C@@H](O)[C@@H](C)[C@@H]4CC[C@@]32C)/C1=C(\CCC=C(C)C)C(=O)O [Fusidic acid] + C/C(=C\C(=O)OCCCCCCCCC(=O)O)C[C@@H]1OC[C@H](C[C@@H]2O[C@H]2[C@@H](C)[C@H](C)O)[C@@H](O)[C@H]1O [Pseudomonic acid] | S. aureus DSM 20231 | 0.0339 |
| O=C(N[C@H](CO)[C@H](O)c1ccc([N+](=O)[O-])cc1)C(Cl)Cl [Chloramphenicol] + CN(N=O)C(=O)N[C@@H](C=O)[C@@H](O)[C@H](O)[C@H](O)CO [Streptozotocin] | S. aureus DSM 20231 | -0.0514 |
| O=C(N[C@H](CO)[C@H](O)c1ccc([N+](=O)[O-])cc1)C(Cl)Cl [Chloramphenicol] + C[n+]1ccc(-c2cc[n+](C)cc2)cc1 [Paraquat] | S. aureus DSM 20231 | 0.0604 |
| O=C1CN(/N=C/c2ccc([N+](=O)[O-])o2)C(=O)N1 [Nitrofurantoin] + CN[C@H](CC(C)C)C(=O)N[C@H]1C(=O)N[C@@H](CC(N)=O)C(=O)N[C@H]2C(=O)N[C@H]3C(=O)N[C@H](C(=O)N[C@H](C(=O)O)c4cc(O)cc(O)c4-c4cc3ccc4O)[C@H](O[C@H]3C[C@](C)(N)[C@@H](O)[C@H](C)O3)c3ccc(c(Cl)c3)Oc3cc2cc(c3O[C@@H]2O[C@H](CO)[C@@H](O)[C@H](O)[C@H]2O[C@H]2C[C@](C)(NCc3ccc(-c4ccc(Cl)cc4)cc3)[C@@H](O)[C@H](C)O2)Oc2ccc(cc2Cl)[C@H]1O [Oritavancin] | S. aureus DSM 20231 | -0.0379 |
